The values you see were collected from the supplement of paper PMC12455559.

method_description: PET hydrolysis, aromatic products released after 48 h (umol product/mg enzyme); higher = more PET depolymerization activity
test_parameters: substrate: cryPow; 40 °C; pH 7.5
readout_name: PET hydrolysis
Note: the reply should be a number with no unit written.

PET hydrolysis for ATGPSSPCSNCTRGPDPTVASLKSATGPYTTAKFSVSGYLKGFGDSTVYYPTNASGKMGAIAVIPGYVSYEDSIKWWGPRLASHGFVVMTMNTSTIYDQPDSRATQLSKALDYMIAQSGSSSSPIYNKVDSTRLGVIGWSMGGGGTLKLSTQRSINAIIPQAPYYAGSNSFNTIKTPALILACGADAVAPVGVHASPFYNRIPGTTPKAYLEIYGGSHFCANSGYPNEDLLGMYGIAWMKRFIDFDSRYSKFLCGPNHTADLNISEYRQNCNY [DP078] is 60

###

method_description: purified protein yield per well (BCA); higher = higher soluble expression
readout_name: purified protein yield per well

Solved cases below.
>>> measured("SNPAPDTGSGDGSSSQYQIGPDPTVSFLEASSGPFSVRTSNVSSLVSGFGGGTIHYPTGVNRPMAAIVVIPGFVSAESSIDWWGPKLASYGFVVMTIGTNSGFDQPPSRARQINNALDYLVAQNTNSRSPVNGMIDTNRLGAMGWSMGGGGTLRVAEEGRIKAAIPLAPWDTTSFRSNRTPTLIFACGSDSIAPVRTHASPFYNQIPTSTPKIFIEINRGNHYCANGGNSNNATLGRLGVAWMKRFLDEDRRYSQFLCGPRHTSDRNISESRDTCNF [ESM186]")
"43 µg"
>>> measured("CDSILSQSLTNTGPYNVLSINESDGIRNGQHYNGATIFYPEGNLTNLASMVFVPGYSNTQLSIQNWGFFLASHGIVTMTIGTNSLLDSHIKRKDALLDALVTVKQENVRVSSPLYNSLDTLKLALGGFSKGGGGAQLAASVGQNIKAIIALYPWLENISSSDLNHNVPVLIVSGSLDIIAPPSLHADVHYMYTPQTTNKLKYELAFGTHDPLTGPNAGSGEVGKKTLSWLQTFLLSDTCFCPYLLDTPNNASIYMSNLNCTEIGTNTNNLQSNTEKKLVKIIDVFGREVSPKKNMILFYVYDNQSVKKIIIK [TEP094]")
"< 25 µg"

Continue with the next sequence.
purified protein yield per well for ADNPYERGPDPTEASIEAPRGPYAVAEKSVSALEATGFGGGTIHYPTSTAEGTFGAVAIAPGYTALQSSVAWLGPRLASQGFVVITIDTHTTVDQPASRGDQLLAALDHLTRRDSVRSRVDSGRLGVMGHSMGGGGSLEAAKDRPSLQAAIPLTGWNLDKTWSEVRVPTMLIGADGDTIAPVATHSQPFYESLPSTLDRAYLELNDAGHFTPNAPDTTIAKYSVSWLKRFIDNDTRYEQFLCPLPRPSRTIDEYRGNCPHTS [TEP143] is < 25 µg

###

method_description: PET hydrolysis, aromatic products released after 48 h (umol product/mg enzyme); higher = more PET depolymerization activity
test_parameters: substrate: cryPow; 60 °C; pH 5.5
Readings of PET hydrolysis for the listed sequences

Solved cases below.
>>> measured("MAAANPYQRGPDPTLASVAATNGPFATAQMTVPPGNGFNGGYIYYPTDTSLGTWGAVAIVPGYTALFKNEEAWMGPRLASFGFVVIGIETNSRTDFDTARGTQLLAALDYLTQKSAVRNRVDPGRLGVIGHSMGGGGALVAATQRPSLKAAVGLAPFKPSGNLANDRVPTMFIAGNRDTVVTPSYLDGLYGSLPAATKKAYVQINGADHLFATKPNTVEMRTLIPWLKIFLDNDTRYSQFLCPTLLDKTGVSMYRGTCPLI [TEP109]")
47
>>> measured("ATPARPASVAAAPAAVQRAADNPYQRGPAPTEASITAEKGPFAVETIPVPAGSGTGFNKGTVYAPTDTSEGTFGAIVVSPGFVSPEAWISWYGPRLASQGFVVMTLETNSLVDVPASRGDQLLAALDWLTGKSSVKNRIDASRTAVMGHSMGGGGTLEAANKRPSLKADIPLAPWDTNYNFPNIKTPTLIMGADNDLIAPASSMAESYYNNITTAPEKAYLLLKNAGHMTFVSPNTTIAKYSIAWMKRFVDNDTRYDQFLCPAPKPDANIAKYLDTCPNG [DP016]")
10

PET hydrolysis for ADNPYQRGPAPTNTSIEATRGTYAVSTKTISALSARGFGGGTIYYPTSTADGTFGVVAISPGYTASQSTIAWLGPRLASFGFVVVTIDTTTRYDQPTSRGSQLLAALDQAIGDSTVGPRIDATRQAVVGHSMGGGGTLEAAKTRRSLEAAVPLTGWNLDKTWPEVEAATLVIGAQNDTVAPTTSHSIPFYNSLSGAERKAYLELRGASHFAPVTSNTTIAKHTLSWLKRYVDDDTRYEQFISPGPSTAIGSPVSDYRVN [DP022] is < 3
